Target: IGF-1 receptor on the cells of the PathHunter IGF1R Functional Assay (DiscoverX) (UniProt P08069 31-1367)
Sequence (P08069 31-1367): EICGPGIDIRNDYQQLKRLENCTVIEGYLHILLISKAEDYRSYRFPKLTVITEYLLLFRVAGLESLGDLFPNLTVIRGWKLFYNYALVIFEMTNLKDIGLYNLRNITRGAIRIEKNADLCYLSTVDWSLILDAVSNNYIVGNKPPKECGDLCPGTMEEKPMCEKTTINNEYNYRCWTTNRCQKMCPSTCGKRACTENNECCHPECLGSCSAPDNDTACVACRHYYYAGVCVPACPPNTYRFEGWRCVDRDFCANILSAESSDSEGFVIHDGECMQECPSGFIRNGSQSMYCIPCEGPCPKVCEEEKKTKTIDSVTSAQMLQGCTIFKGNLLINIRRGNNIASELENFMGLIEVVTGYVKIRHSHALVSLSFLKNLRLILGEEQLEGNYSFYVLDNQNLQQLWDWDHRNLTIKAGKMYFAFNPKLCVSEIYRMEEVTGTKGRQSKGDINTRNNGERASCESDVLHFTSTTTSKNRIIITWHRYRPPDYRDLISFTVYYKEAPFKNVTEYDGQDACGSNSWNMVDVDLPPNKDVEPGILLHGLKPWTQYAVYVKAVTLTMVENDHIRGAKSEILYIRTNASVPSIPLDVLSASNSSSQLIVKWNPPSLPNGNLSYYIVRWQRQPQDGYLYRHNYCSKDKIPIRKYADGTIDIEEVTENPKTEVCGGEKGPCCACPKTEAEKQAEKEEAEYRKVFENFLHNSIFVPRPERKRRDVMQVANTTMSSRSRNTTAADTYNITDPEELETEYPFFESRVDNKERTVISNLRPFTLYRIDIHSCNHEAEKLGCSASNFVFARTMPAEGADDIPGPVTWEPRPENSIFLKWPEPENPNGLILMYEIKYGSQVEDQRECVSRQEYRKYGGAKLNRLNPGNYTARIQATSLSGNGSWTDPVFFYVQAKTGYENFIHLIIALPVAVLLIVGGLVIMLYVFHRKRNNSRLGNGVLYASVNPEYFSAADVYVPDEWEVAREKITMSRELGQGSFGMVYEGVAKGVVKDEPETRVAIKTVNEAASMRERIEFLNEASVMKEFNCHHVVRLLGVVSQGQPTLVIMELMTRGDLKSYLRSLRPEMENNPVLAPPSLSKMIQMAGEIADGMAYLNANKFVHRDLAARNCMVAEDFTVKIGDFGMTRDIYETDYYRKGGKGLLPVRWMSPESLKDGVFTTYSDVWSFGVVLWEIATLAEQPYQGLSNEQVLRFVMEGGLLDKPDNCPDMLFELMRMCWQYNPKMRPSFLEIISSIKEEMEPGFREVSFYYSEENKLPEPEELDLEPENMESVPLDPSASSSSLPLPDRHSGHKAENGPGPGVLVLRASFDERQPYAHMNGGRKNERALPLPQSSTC
Experiment: cell-based or functional assay
test_readout: Signal activation EC50 vs IGF11-16, PathHunter (ratio vs IGF11-16)
Quick reminder: number only, in ratio vs IGF11-16, skip the unit.

Past entries and their recorded results:
IGF11-16 with alanine substitution of R at position 102 (CDR-H3) (antibody, mouse IgG1, V domains shown) VH: QIQLQQPGAELVKPGASVKLSCKAPGYTFTSYWMHWVKQRPGQGLEWIGETNPSNSVTNYNEKFKSKATLTVDKSSSTAYMQLSSLTSEDSAVYYCTIGRGAGFAYWGQGTLVTVSA VL: DIQMNQSPSSLSASLGDTITITCRASQNINFWLSWCQQKPGNIPKLLIYKASNLHTGVPSRFSGSGSGTDFTLTISSLQPEDIATYYCLQGQSYPYTFGGGTKLEIK; 54.4
IGF11-16 with alanine substitution of F at position 64 (CDR-H2) (antibody, mouse IgG1, V domains shown) VH: QIQLQQPGAELVKPGASVKLSCKAPGYTFTSYWMHWVKQRPGQGLEWIGETNPSNSVTNYNEKAKSKATLTVDKSSSTAYMQLSSLTSEDSAVYYCTIGRGRGFAYWGQGTLVTVSA VL: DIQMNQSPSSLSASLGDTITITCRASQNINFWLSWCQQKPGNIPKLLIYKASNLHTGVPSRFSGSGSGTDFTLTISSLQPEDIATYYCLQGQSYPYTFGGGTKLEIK; 2.4

// switching to the query binder
Task: Given IGF11-16 with alanine substitution of S at position 54 (CDR-H2) (antibody, mouse IgG1, V domains shown) VH: QIQLQQPGAELVKPGASVKLSCKAPGYTFTSYWMHWVKQRPGQGLEWIGETNPANSVTNYNEKFKSKATLTVDKSSSTAYMQLSSLTSEDSAVYYCTIGRGRGFAYWGQGTLVTVSA VL: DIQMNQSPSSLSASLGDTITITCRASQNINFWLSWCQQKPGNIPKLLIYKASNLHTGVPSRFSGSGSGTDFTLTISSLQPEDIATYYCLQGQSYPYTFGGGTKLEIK , state its recorded Signal activation EC50 vs IGF11-16, PathHunter.
Output: 2.5
